# log10(EC50) listing for each entry below
- SYSTEM TESTED: PPARγ (Homo sapiens)
- Sequence (P37231 238-503 limits assumed): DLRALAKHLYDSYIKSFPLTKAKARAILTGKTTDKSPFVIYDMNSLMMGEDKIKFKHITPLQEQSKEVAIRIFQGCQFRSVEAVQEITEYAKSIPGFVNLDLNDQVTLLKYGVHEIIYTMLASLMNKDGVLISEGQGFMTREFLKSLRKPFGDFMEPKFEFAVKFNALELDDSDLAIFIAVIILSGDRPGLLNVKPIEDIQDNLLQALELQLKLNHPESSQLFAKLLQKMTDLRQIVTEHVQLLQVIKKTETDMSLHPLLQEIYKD
- MEASUREMENT PROTOCOL: Fluorescent Polarization (FP) binding assay with corepressor peptides, PPARγ
- CONDITION SUMMARY: FP assay; Nb = no binding; read-out: Binding assay EC50, γ
- Description: For PPARγ screening, a fluorescent ligand supplied by Cayman Chemicals was also used. All compounds were dissolved in DMSO as 10 mM stock solutions and the final DMSO content in the assay was <1%. A TECAN Ultra 485 multi-functional microplate reader and GraphPad prism 4 software were used for measurements and analysis, respectively. PPAR antagonists are expected to enhance the affinities of the corepressor peptides, and therefore, FP should increase as the compound concentration increases. […]
MEASURED ATTRIBUTE: log10(EC50) (log10 of the value in µM)

compound="O=C(NN(C(=O)c1ccc(Cl)cc1)S(=O)(=O)c1ccc(C(F)(F)F)cc1)c1ccc(Cl)cc1 [YL-1-81]" result_value=1.18
compound="CC(C)(C)c1ccc(S(=O)(=O)N(NC(=O)c2ccc(O)cc2)C(=O)c2ccc(O)cc2)cc1 [YL-1-88]" result_value=1.35
compound="CC(=O)Oc1ccc(C(=O)NN(C(=O)c2ccc(OC(C)=O)cc2)S(=O)(=O)c2ccc(C(C)(C)C)cc2)cc1 [YL-1-87]" result_value=-0.39
compound="CC(C)(C)c1ccc(S(=O)(=O)N(NC(=O)c2ccc(Cl)nc2)C(=O)c2ccc(Cl)nc2)cc1 [YL-1-83]" result_value=-0.96
compound="CC(C)(C)c1ccc(S(=O)(=O)N(NC(=O)c2ccc(Cl)cc2)C(=O)c2ccc(Cl)cc2)cc1 [YL-1-68-2]" result_value=0.15
compound="O=C1NN(c2cccc(F)c2)C(=O)/C1=C\\c1ccc(-c2ccc(S(=O)(=O)Nc3ncco3)cc2)o1 [Sd-107-10]" result_value=-0.25
compound="COc1ccc(S(=O)(=O)N(C(=O)c2ccc(Cl)cc2)N(C(=O)c2ccc(Cl)cc2)C(=O)c2ccc(Cl)cc2)cc1 [YL-1-38-1]" result_value=1.61
compound="CC(C)(C)c1ccc(C(=O)N(NC(=O)c2ccc(Cl)cc2)S(=O)(=O)c2ccc(C(C)(C)C)cc2)cc1 [YL-1-80]" result_value=0.96
